- TESTED TARGET: KPC Enzyme (Klebsiella pneumoniae, UniProt Q9F663)
- Sequence (Q9F663 25-293, looked up): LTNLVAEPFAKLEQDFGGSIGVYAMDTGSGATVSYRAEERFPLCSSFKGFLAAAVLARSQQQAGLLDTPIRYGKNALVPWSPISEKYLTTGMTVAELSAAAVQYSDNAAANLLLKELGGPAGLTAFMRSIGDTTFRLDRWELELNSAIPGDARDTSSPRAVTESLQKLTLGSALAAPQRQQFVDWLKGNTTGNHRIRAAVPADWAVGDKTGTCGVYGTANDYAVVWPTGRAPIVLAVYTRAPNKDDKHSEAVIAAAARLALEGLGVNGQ
- EXPERIMENT SUMMARY: Imipenem hydrolysis monitored by UV absorbance slope, KPC enzyme
- Type: biochemical
- CONDITIONS: 10 μM compound; starred cells in the IC50 column; ND = Not Detectable (at 10 μM)
- Method: These tests are conducted by comparing UV absorbance slope measurements of impenem alone, and then imipenem with the concerned 3-imidazolines at given concentrations in the presence of the enzyme. It was thus possible to monitor the hydrolysis of imipenem. Lower the value of the slope, the higher is the percentage of inhibition of the enzyme.
Recorded KPC Enzyme percentage of inhibition at 10 μM by entry
MEASURED ATTRIBUTE: KPC Enzyme percentage of inhibition at 10 μM (%*)

MOLECULE | TESTED TARGET | UNITS SYMBOL | OBSERVED VALUE
CC1C(c2ccccc2)=NC(c2ccccc2)N1c1ccc(Cl)cc1 (stereo not drawn) | KPC Enzyme (Klebsiella pneumoniae, UniProt Q9F663) | %* | 18
CC1C(c2ccccc2)=NC(c2ccccc2)N1c1ccccc1 (stereo not drawn) | KPC Enzyme (Klebsiella pneumoniae, UniProt Q9F663) | %* | 23
COc1ccc(N2C(C)C(c3ccccc3)=NC2c2ccccc2)cc1 (stereo not drawn) | KPC Enzyme (Klebsiella pneumoniae, UniProt Q9F663) | %* | 17
CC1C(c2ccc(Cl)cc2)=NC(c2ccc(Cl)cc2)N1c1ccccc1 (stereo not drawn) | KPC Enzyme (Klebsiella pneumoniae, UniProt Q9F663) | %* | 14
COc1ccc(C2=NC(c3ccccc3)N(c3ccccc3)C2C)cc1 (stereo not drawn) | KPC Enzyme (Klebsiella pneumoniae, UniProt Q9F663) | %* | 23
COc1ccc(C2=NC(c3ccc(OC)cc3)N(c3ccc(OC)cc3)C2C)cc1 (stereo not drawn) | KPC Enzyme (Klebsiella pneumoniae, UniProt Q9F663) | %* | 18
